The measurements presented in this section are drawn from patent US20070293512A1.

pIC50: −log10 of the molar value. Structures can show the parent of a compound that is named as a salt.
Recorded below: pIC50, system Cow milk Xanthine Oxidase (Bos taurus, UniProt P80457).
assay endpoint: pIC50

Would you please look over these solved cases?
Problem: Reported pIC50, compound O=[N+]([O-])c1cc(-c2nc3c(O)ncnc3s2)ccc1Oc1ccc(Oc2ccccc2)cc1 [Example 28] : ____
Result: 7.17

Problem: Reported pIC50, compound O=C(O)c1ccc(Oc2ccc(-c3nc4c(O)ncnc4s3)cc2[N+](=O)[O-])cc1 [Example 26] : ____
Result: 8.01

Problem: Reported pIC50, compound O=[N+]([O-])c1cc(-c2nc3c(O)ncnc3s2)ccc1Sc1ccc(Cl)cc1 [Example 2] : ____
Result: 7.86

Problem: Reported pIC50, compound O=[N+]([O-])c1cc(-c2nc3c(O)ncnc3s2)ccc1Oc1ccccc1Cl [Example 18] : ____
Result: 8.10

Problem: Reported pIC50, compound N#Cc1cc(-c2nc3c(O)ncnc3s2)ccc1Sc1ccc(Cl)cc1 [Example 9] : ____
Result: 7.84

[I] N#Cc1cc(-c2nc3c([O-])ncnc3s2)ccc1Oc1ccccc1.[K+] [Example 49, potassium salt]
[II] O=[N+]([O-])c1cc(-c2nc3c(O)ncnc3s2)ccc1Sc1ccc(Cl)cc1 [Example 3, potassium salt]
Problem: Which of these two has the smaller recorded pIC50: I or II ? Lab note: record the label of whichever item you select.
Result: II
(II: 7.72, I: 7.97)
